Provenance of the data: patent US20130012432A1

molecular target: T1, human MC4 receptor (human, UniProt P32245 1-332); assay: 125I-NDP-α-MSH displacement, BHK-human MC4 membranes (Assay V);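 further: Filter-retained radioactivity read by gamma counting, with affinity obtained through non-linear regression fitting of the binding curves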
T1 construct: whole, on cells; Assayed as membranes of BHK cells stably expressing the receptor; also called melanocortin receptor subtype 4; melanocortin receptor 4
T1 sequence (P32245 whole entry): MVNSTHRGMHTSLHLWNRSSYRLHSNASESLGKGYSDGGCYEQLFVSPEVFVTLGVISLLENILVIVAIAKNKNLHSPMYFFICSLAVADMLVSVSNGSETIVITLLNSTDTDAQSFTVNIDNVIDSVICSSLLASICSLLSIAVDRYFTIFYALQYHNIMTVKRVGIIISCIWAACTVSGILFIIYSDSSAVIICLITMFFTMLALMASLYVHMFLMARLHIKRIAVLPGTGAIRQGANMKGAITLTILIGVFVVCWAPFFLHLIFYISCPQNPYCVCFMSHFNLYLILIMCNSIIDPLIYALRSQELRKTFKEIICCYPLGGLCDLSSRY
pKi: −log10 of the molar value. Positions of bridges follow the written chain, without caps; N, C: chain ends. Non-standard residues stand in square brackets, D forms with d. Groups on a side chain read outwards from the residue. Primed or numbered codes have the meaning given here. *: point of attachment. X5 = NH(2-(2-(2-(17-carboxyheptadecanoylamino)ethoxy)ethoxy)ethyl), O=C(O)CCCCCCCCCCCCCCCCC(=O)NCCOCCOCCN*; X3 = (2-(2-(15-carboxypentadecanoylamino)ethoxy)ethoxy)acetyl, O=C(O)CCCCCCCCCCCCCCC(=O)NCCOCCOCC(=O)*; biscarboxymethyl = Lys(biscarboxymethyl) = Nepsilon-bis(carboxymethyl)-L-lysine; bis(carboxymethyl) = Lys(biscarboxymethyl) = N6-bis(carboxymethyl)-L-lysine; Palmitoyl(16-(5-tetrazolyl)) = O=C(CCCCCCCCCCCCCCCc1nnn[nH]1)*; biscarboxymethyl(3) = Nepsilon-bis(carboxymethyl) on Lys; Lys(CH2CO2H)2 = N[C@@H](CCCCN(CC(=O)O)CC(=O)O)C(=O)O; C17 diacid = O=C(O)CCCCCCCCCCCCCCCC(=O)*; C16 diacid = O=C(O)CCCCCCCCCCCCCCC(=O)*; hCys = N[C@@H](CCS)C(=O)O; Orn = NCCC[C@H](N)C(=O)O; Dab = NCC[C@H](N)C(=O)O; AEEA = NCCOCCOCC(=O)O
experimental_endpoint: pKi

• Ac-[Dab]H[dF]RWEPPRDK(biscarboxymethyl(3))K([AEEA-Palmitoyl(16-(5-tetrazolyl))])-NH2 (lactam 1-6) = 6.97
• Ac-EH[dF]RW[Orn]PPDK(biscarboxymethyl)K(X3)-NH2 (lactam 1-6) = 7.19
• Ac-[Orn]H[dF]RWDPPHEK(biscarboxymethyl)K(X3)-NH2 (lactam 1-6) = 8.47
• Ac-KH[dF]RWEPPHE[Lys(CH2CO2H)2]K([AEEA-C17 diacid])-NH2 (lactam 1-6; SMILES CC(=O)N[C@H]1CCCCNC(=O)CC[C@@H](C(=O)N2CCC[C@H]2C(=O)N2CCC[C@H]2C(=O)N[C@@H](Cc2c[nH]cn2)C(=O)N[C@@H](CCC(=O)O)C(=O)N[C@@H](CCCCN(CC(=O)O)CC(=O)O)C(=O)N[C@@H](CCCCNC(=O)COCCOCCNC(=O)CCCCCCCCCCCCCCCC(=O)O)C(N)=O)NC(=O)[C@H](Cc2c[nH]c3ccccc23)NC(=O)[C@H](CCCNC(=N)N)NC(=O)[C@@H](Cc2ccccc2)NC(=O)[C@H](Cc2c[nH]cn2)NC1=O) = 6.46
• Ac-[Dab]H[dF]RWDPPREK(biscarboxymethyl(3))K([AEEA-Palmitoyl(16-(5-tetrazolyl))])-NH2 (lactam 1-6) = 8.07
• Ac-[hCys]H[dF]RWCPPSEK(bis(carboxymethyl))K([AEEA-C16 diacid])-NH2 (disulfide 1-6) = 7.15
• Ac-[Dab]H[dF]RWDPPREK(biscarboxymethyl(3))SS-X5 (lactam 1-6) = 7.90
• Ac-EH[dF]RW[Dab]PPRDK(biscarboxymethyl(3))K([AEEA-Palmitoyl(16-(5-tetrazolyl))])-NH2 (lactam 1-6) = 7.41
